Cited source for all entries: patent US20210308211A1

# assaySystem: Recombinant bovine HSC70 (Stressgen) (bovine) (UniProt P19120)
# Sequence (P19120 whole entry): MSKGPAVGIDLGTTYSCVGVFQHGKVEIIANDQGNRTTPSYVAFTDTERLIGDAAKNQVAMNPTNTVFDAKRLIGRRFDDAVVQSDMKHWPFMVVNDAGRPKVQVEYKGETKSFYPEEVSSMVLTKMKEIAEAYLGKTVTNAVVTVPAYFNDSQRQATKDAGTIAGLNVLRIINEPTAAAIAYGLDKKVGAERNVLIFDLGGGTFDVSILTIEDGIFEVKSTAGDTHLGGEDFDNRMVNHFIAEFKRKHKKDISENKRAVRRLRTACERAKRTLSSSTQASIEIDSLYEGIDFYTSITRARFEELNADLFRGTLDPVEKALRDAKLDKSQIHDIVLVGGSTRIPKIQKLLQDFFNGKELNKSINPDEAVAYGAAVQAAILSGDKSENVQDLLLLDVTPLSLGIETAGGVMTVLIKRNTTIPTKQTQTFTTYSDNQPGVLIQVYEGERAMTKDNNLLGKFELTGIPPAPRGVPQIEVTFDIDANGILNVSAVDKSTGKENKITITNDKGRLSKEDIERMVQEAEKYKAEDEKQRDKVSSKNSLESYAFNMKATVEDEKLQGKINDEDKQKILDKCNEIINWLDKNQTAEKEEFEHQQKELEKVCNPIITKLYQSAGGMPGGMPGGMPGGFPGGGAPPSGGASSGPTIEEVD
# measurementDescription: SPR, BIAcore 3000; HSC70 immobilised, peptide injected; 1:1 Langmuir fit; row for analyte at 3.12 µM
pKd: −log10 of the molar value. Non-standard residues stand in square brackets, D forms with d. No end group written: not given here. Met(O) = CS(=O)CC[C@H](N)C(=O)O; pS = N[C@@H](COP(=O)(O)O)C(=O)O
resultType: pKd

I. RIH[Met(O)]VYSKR[pS]GKPRGYAFIEY
II. RIHMVYSKR[pS]GKPRGYAFIEY [P140 peptide (SEQ ID NO: 1 in which serine at position 10 is phosphorylated; SEQ ID NO: 4)]
Q: For the pair I and II , which entry has the numerically smaller recorded pKd? The response must carry the label of the picked entry.
Ans: II
